system: HT-144 (Melanoma); assay: Bliss excess, mean over the matrix (fraction); higher = more synergy;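 also: after 72 h of two-drug dosing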
Each entry below carries its reported Bliss excess.

[
  {
    "Compound": "Cc1c2c(nn1C)CSCc1cc(n(C)n1)CSc1cc(c3ccccc3c1)OCCCc1c(C(=O)O)n(C)c3c-2c(Cl)ccc13 [AZD5991] + CC1(C)CCC(CN2CCN(c3ccc(C(=O)NS(=O)(=O)c4ccc(NCC5CCOCC5)c([N+](=O)[O-])c4)c(Oc4cnc5[nH]ccc5c4)c3)CC2)=C(c2ccc(Cl)cc2)C1 [Venetoclax] (first compound max 1 µM, 7x7, partner max 1 µM)",
    "Bliss excess": 0.005
  },
  {
    "Compound": "CCc1c2c(nc3ccc(O)cc13)-c1cc3c(c(=O)n1C2)COC(=O)[C@]3(O)CC [SN-38] + CN(C)CCCOc1ccc(-c2ccc3ncc4c(c3c2)n(C2CCOCC2)c(=O)n4C)cn1 [AZD0156] (first compound max 0.3 µM, 7x7, partner max 1 µM)",
    "Bliss excess": -0.0219
  },
  {
    "Compound": "COc1nnc2ccc(N3CCC(c4ccc(OCCN5CCN(C)C(=O)[C@H]5C)cc4)CC3)nn12 [AZD5153] + Cn1cnc2c(F)c(Nc3ccc(Br)cc3Cl)c(C(=O)NOCCO)cc21 [Selumetinib] (first compound max 1 µM, 7x7, partner max 10 µM)",
    "Bliss excess": 0.0212
  },
  {
    "Compound": "CC1(C)CCC(CN2CCN(c3ccc(C(=O)NS(=O)(=O)c4ccc(NCC5CCOCC5)c([N+](=O)[O-])c4)c(Oc4cnc5[nH]ccc5c4)c3)CC2)=C(c2ccc(Cl)cc2)C1 [Venetoclax] + Cn1cnc2c(F)c(Nc3ccc(Br)cc3Cl)c(C(=O)NOCCO)cc21 [Selumetinib] (first compound max 1 µM, 7x7, partner max 3 µM)",
    "Bliss excess": -0.0616
  },
  {
    "Compound": "Cn1cnc2c(F)c(Nc3ccc(Br)cc3Cl)c(C(=O)NOCCO)cc21 [Selumetinib] + CCN(CCO)CCCOc1ccc2c(Nc3cc(CC(=O)Nc4cccc(F)c4)[nH]n3)ncnc2c1 [AZD2811] (first compound max 10 µM, 7x7, partner max 1 µM)",
    "Bliss excess": 0.0172
  }
]
